system: 349418-098-R-PDC complex spheroid viability; test: Anticancer human tumor 349418-098-R-PDC patient-derived lung adenocarcinoma cell line growth inhibition [RAS]; conditions: second compound 0.000949 µM; first compound 0.0316 µM; stronger effect = lower value;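 note: spheroids exposed to compound for seven days before viability readout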
# viability, T/C annotations
endpoint: viability, T/C (%)

compound="C=CC(=O)N1CCN(c2nc(OCC3CCCN3C)nc3c(F)c(-c4nc(N)cc(C)c4C(F)(F)F)c(Cl)cc23)C(C)C1 (stereo unspecified) + CCn1c(-c2cccnc2C(C)OC)c2c3cc(ccc31)N1CCOC(CC(NC(=O)C(C(C)C)N(C)C(=O)C3(F)CCN(C(=O)C#CC(C)(C)N(C)C)CC3)C(=O)N3CCCC(N3)C(=O)OCC(C)(C)C2)C1" endpoint="viability, T/C" obsvalue=111
compound="Cc1nc(N2CCC3(CC2)COC(C)C3N)c(CO)nc1Sc1ccnc(N)c1Cl (stereo unspecified) + CCn1c(-c2cccnc2C(C)OC)c2c3cc(ccc31)N1CCOC(CC(NC(=O)C(C(C)C)N(C)C(=O)C3(F)CCN(C(=O)C#CC(C)(C)N(C)C)CC3)C(=O)N3CCCC(N3)C(=O)OCC(C)(C)C2)C1" endpoint="viability, T/C" obsvalue=97.9
compound="C[C@@H](NC(=O)c1ncnc(N)c1Cl)c1ncc(C(=O)Nc2cc(C(F)(F)F)c(Cl)cn2)s1 + CCn1c(-c2cccnc2C(C)OC)c2c3cc(ccc31)N1CCOC(CC(NC(=O)C(C(C)C)N(C)C(=O)C3(F)CCN(C(=O)C#CC(C)(C)N(C)C)CC3)C(=O)N3CCCC(N3)C(=O)OCC(C)(C)C2)C1" endpoint="viability, T/C" obsvalue=113
compound="O=C(c1ccc(F)c(F)c1Nc1ccc(I)cc1F)N1CC(O)([C@@H]2CCCCN2)C1 + CCn1c(-c2cc(N3CCN(C)CC3)cnc2C(C)OC)c2c3cc(ccc31)-c1csc(n1)CC(NC(=O)C1CC1C)C(=O)N1CCCC(N1)C(=O)OCC(C)(C)C2" endpoint="viability, T/C" obsvalue=12.3
compound="C=CC(=O)Nc1cc(Nc2nccc(-c3cn(C)c4ccccc34)n2)c(OC)cc1N(C)CCN(C)C + CCn1c(-c2cccnc2C(C)OC)c2c3cc(ccc31)N1CCOC(CC(NC(=O)C(C(C)C)N(C)C(=O)C3(F)CCN(C(=O)C#CC(C)(C)N(C)C)CC3)C(=O)N3CCCC(N3)C(=O)OCC(C)(C)C2)C1" endpoint="viability, T/C" obsvalue=93.6
compound="CCC(CC)c1cc(NC2CCC(N)C2)n2nccc2n1 (stereo unspecified) + CCn1c(-c2cc(N3CCN(C)CC3)cnc2C(C)OC)c2c3cc(ccc31)-c1csc(n1)CC(NC(=O)C1CC1C)C(=O)N1CCCC(N1)C(=O)OCC(C)(C)C2" endpoint="viability, T/C" obsvalue=96.1
compound="CC1(O)CCCC1n1c(=O)c(C(F)F)cc2cnc(NC3CCN(S(C)(=O)=O)CC3)nc21 (stereo unspecified) + CCn1c(-c2cc(N3CCN(C)CC3)cnc2C(C)OC)c2c3cc(ccc31)-c1csc(n1)CC(NC(=O)C1CC1C)C(=O)N1CCCC(N1)C(=O)OCC(C)(C)C2" endpoint="viability, T/C" obsvalue=71.3
compound="Nc1ccn(C2OC(CO)C(O)C2(F)F)c(=O)n1 (stereo unspecified) + CCn1c(-c2cc(N3CCN(C)CC3)cnc2C(C)OC)c2c3cc(ccc31)-c1csc(n1)CC(NC(=O)C1CC1C)C(=O)N1CCCC(N1)C(=O)OCC(C)(C)C2" endpoint="viability, T/C" obsvalue=5.75
compound="NC1c2ccccc2OC12CCN(c1cnc3c(N4CCCc5ncccc54)n[nH]c3n1)CC2 (stereo unspecified) + CCn1c(-c2cc(N3CCN(C)CC3)cnc2C(C)OC)c2c3cc(ccc31)-c1csc(n1)CC(NC(=O)C1CC1C)C(=O)N1CCCC(N1)C(=O)OCC(C)(C)C2" endpoint="viability, T/C" obsvalue=91.7
compound="CC(C)NCC(C(=O)N1CCN(c2ncnc3c2C(C)CC3O)CC1)c1ccc(Cl)cc1 (stereo unspecified) + CCn1c(-c2cccnc2C(C)OC)c2c3cc(ccc31)N1CCOC(CC(NC(=O)C(C(C)C)N(C)C(=O)C3(F)CCN(C(=O)C#CC(C)(C)N(C)C)CC3)C(=O)N3CCCC(N3)C(=O)OCC(C)(C)C2)C1" endpoint="viability, T/C" obsvalue=83.5
compound="CCN1CCN(Cc2ccc(Nc3ncc(F)c(-c4cc(F)c5nc(C)n(C(C)C)c5c4)n3)nc2)CC1 + CCn1c(-c2cc(N3CCN(C)CC3)cnc2C(C)OC)c2c3cc(ccc31)-c1csc(n1)CC(NC(=O)C1CC1C)C(=O)N1CCCC(N1)C(=O)OCC(C)(C)C2" endpoint="viability, T/C" obsvalue=33.4
